molecular target: USP46 (UniProt P62068); experiment: log2 ratio of Biotin-Ahx-Ub-VS probe labelling (fragment/DMSO); higher = less target engagement (more negative = stronger competition), active = hit call of the paper (q ≤ 0.05, log2 ratio ≤ -1); details: compound concentration: 200 uM; treatment time: 3 h
Sequence (P62068 whole entry, the tested form may be a part): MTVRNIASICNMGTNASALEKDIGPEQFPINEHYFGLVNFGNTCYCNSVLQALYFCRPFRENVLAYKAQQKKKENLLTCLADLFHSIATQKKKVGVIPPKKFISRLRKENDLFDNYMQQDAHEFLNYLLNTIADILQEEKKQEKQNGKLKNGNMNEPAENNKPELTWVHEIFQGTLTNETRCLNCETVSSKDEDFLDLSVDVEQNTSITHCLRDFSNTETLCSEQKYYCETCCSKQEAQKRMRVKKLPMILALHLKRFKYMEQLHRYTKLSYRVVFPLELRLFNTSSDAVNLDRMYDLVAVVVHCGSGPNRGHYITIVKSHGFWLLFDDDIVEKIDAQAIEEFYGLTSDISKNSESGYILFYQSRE
Task for the reader: assign each of the following compounds its reported log2 ratio of Biotin-Ahx-Ub-VS probe labelling.
Response field accepts a number only; no unit should be typed.

Recorded log2 ratio of Biotin-Ahx-Ub-VS probe labelling (compound "CC(C)n1nccc1NC(=O)CCl" ): 0.0362

Recorded log2 ratio of Biotin-Ahx-Ub-VS probe labelling (compound O=C(CCl)N1CCOC(c2cccc(F)c2)C1 (centres undefined) ): -0.374

Recorded log2 ratio of Biotin-Ahx-Ub-VS probe labelling (compound Cl.Cn1ncc2c1CC(NC(=O)CCl)CC2 (centres undefined) ): 0.116

Recorded log2 ratio of Biotin-Ahx-Ub-VS probe labelling (compound CC(c1ccccc1)N(C)C(=O)CCl (centres undefined) ): -0.161

Recorded log2 ratio of Biotin-Ahx-Ub-VS probe labelling (compound "Cl.O=C(CCl)NCCN1CCc2ccccc21" ): -0.521

Recorded log2 ratio of Biotin-Ahx-Ub-VS probe labelling (compound "O=C(CCl)Nc1ccc(F)cc1F" ): -0.0216

Recorded log2 ratio of Biotin-Ahx-Ub-VS probe labelling (compound "COCC[C@@H](NC(=O)CCl)c1ccccc1" ): 0.164

Recorded log2 ratio of Biotin-Ahx-Ub-VS probe labelling (compound O=C(CCl)N1CCCC1c1ccsc1 (centres undefined) ): -0.105

Recorded log2 ratio of Biotin-Ahx-Ub-VS probe labelling (compound "O=C(CCl)NCC(=O)N1CCCC1" ): 0.0751

Recorded log2 ratio of Biotin-Ahx-Ub-VS probe labelling (compound "O=C(CCl)N1CCCN(C(=O)c2ccc(Cl)cc2)CC1" ): -0.129

Recorded log2 ratio of Biotin-Ahx-Ub-VS probe labelling (compound "Cl.O=C(CCl)N1CCn2ncc(O)c2C1" ): -0.686

Recorded log2 ratio of Biotin-Ahx-Ub-VS probe labelling (compound "N#Cc1ccc(Cl)cc1NC(=O)CCl" ): 0.0423

Recorded log2 ratio of Biotin-Ahx-Ub-VS probe labelling (compound "O=C(CCl)N1CC2(CCOCC2)C1" ): 0.00462

Recorded log2 ratio of Biotin-Ahx-Ub-VS probe labelling (compound Cl.O=C(CCl)N1CCC(Cc2nccs2)C1 (centres undefined) ): 0.105
